Tested on: CCRIS mutagenicity, Ames/micronucleus/aberration tests
assay_details: CCRIS mutagenicity studies
run_parameters: Test System: CHINESE HAMSTER V-79; Strain/Indicator: V-79/8-AZAGUANINE; Metabolic Activation: NONE; Method: STANDARD PLATE
The source made the active and inactive calls. The rule behind the calls is not given here.
Select the correct class. Options are active, inactive and nothing else.

Example cases with answers are listed next.
Oc1cc2cc3ccccc3cc2c2ccccc12 | active
O[C@H]1[C@H]2O[C@H]2c2c(ccc3cc4ccc5ccccc5c4nc23)[C@@H]1O | active

Input line: // outcome(item) with item = "CC(=O)ON(C(C)=O)c1ccc2c(c1)Cc1ccccc1-2"
Output line: active

Input line: Please share the test call associated with "O[C@@H]1[C@@H]2O[C@@H]2c2cc3c(ccc4ccccc43)cc2[C@H]1O" .
Output line: active

Input line: Could you check what this test reported for "[N-]=[N+]=O" ?
Output line: active

Input line: Would you mind telling me which call this test gave "CCOCc1c(O)cc2c(c1O)C(=O)c1ccccc1C2=O" ?
Output line: inactive

Input line: Just curious, what result did "CC(=O)N(O)c1ccc2c(c1)Cc1ccccc1-2" get here?
Output line: active

Input line: Test call for this compound, please: "CN(N=O)C(=O)N[C@@H](C=O)[C@@H](O)[C@H](O)[C@H](O)CO"
Output line: active

* * *

Test system: CCRIS mutagenicity, Ames/micronucleus/aberration tests
assay_details: CCRIS mutagenicity studies
run_parameters: Test System: AMES SALMONELLA TYPHIMURIUM; Strain/Indicator: TA1535; Metabolic Activation: NONE; Method: STANDARD PLATE
Active and inactive are the calls of the source. No rule for the calls is given here.
Would you mind answering with one of these outcomes? active, inactive

Illustrative cases are given below, each with its answer.
CNC[C@H](O)[C@@H](O)[C@H](O)[C@H](O)CO.CNC[C@H](O)[C@@H](O)[C@H](O)[C@H](O)CO.O=C([O-])CN(CCN(CC(=O)[O-])CC(=O)[O-])CCN(CC(=O)[O-])[C@H](COCc1ccccc1)C(=O)[O-].[Gd+3].[H+].[H+] | inactive
O=C1c2cc(S(=O)(=O)O)ccc2C(=O)c2c1cccc2[N+](=O)[O-] | inactive
c1ccc2c(CCC3CO3)cccc2c1 (centres undefined) | active
CN(C=O)N=O | active

Input line: How was "CC1=CC(=O)c2ccccc2C1=O" classified in this test?
Output line: inactive

Input line: Check the results log: what was the call for "CN(N=O)C(=O)N[C@@H](C=O)[C@@H](O)[C@H](O)[C@H](O)CO" ?
Output line: active

* * *

Tested on: CCRIS mutagenicity, Ames/micronucleus/aberration tests
assay_details: CCRIS mutagenicity studies
run_parameters: Test System: AMES SALMONELLA TYPHIMURIUM; Strain/Indicator: TA1538; Metabolic Activation: MOUSE, LIVER, S-9; Method: STANDARD PLATE
Active and inactive are the calls of the source. No rule for the calls is given here.
Would you mind answering with one of these outcomes? active, inactive

Illustrative cases are given below, each with its answer.
CC(=O)c1ccc(S(=O)(=O)NC(=O)NC2CCCCC2)cc1 | inactive
C#C[C@]1(O)CC[C@H]2[C@@H]3CCc4cc(O)ccc4[C@H]3CC[C@@]21C | inactive
Nc1ccc2cc3ccc(N)cc3nc2c1 | active
C#C[C@]1(OC(C)=O)CC[C@H]2[C@@H]3CCC4=CC(=O)CC[C@@H]4[C@H]3CC[C@@]21C | inactive

Now let's try a different one.
Input line: In this assay, the call recorded for "COc1cc(-c2ccc(N=C=O)c(OC)c2)ccc1N=C=O" was what?
Output line: active

Data provenance is PubChem BioAssay AID1259407.
